B1: NEK9 peptide 736-751 (Serine/threonine-protein kinase Nek9), 16-mer library wild type / NSP9 (ORF1ab Nsp9, residues 4141-4253) (parent)
chain 1: NSSGLSIGTVFQSSSP
chain 2: NNELSPVALRQMSCAAGTTQTACTDDNALAYYNTTKGGRFVLALLSDLQDLKWARFPKSDGTGTIYTELEPPCRFVTDTPKGPKVKYLYFIKGLNNLNRGMVLGSLAATVRLQ

variants of: B1; conditions: with NSP9 (ORF1ab Nsp9, residues 4141-4253); bait immobilised on MaxiSorp plates (10 µg), library pre-cleared on GST, 2 h binding at 4 °C, five washes; one round per day, days 1-4; value from days 2 and 3; keep out of graded; scale: average fractional NGS count over selection days 2 and 3
property measured: screen value

The reported value for chain 1 Q12S in terms of screen value is 4.58e-05

The reported value for chain 1 G4W in terms of screen value is 0

The reported value for chain 1 Q12N in terms of screen value is 0.000424

The reported value for chain 1 S15L in terms of screen value is 2.69e-05

The reported value for chain 1 S14T in terms of screen value is 0

The reported value for chain 1 S3K in terms of screen value is 0

The reported value for chain 1 G4I in terms of screen value is 0

The reported value for chain 1 P16K in terms of screen value is 0.000119

The reported value for chain 1 S2Q in terms of screen value is 2.69e-05

The reported value for chain 1 T9E in terms of screen value is 0.00124

The reported value for chain 1 I7L in terms of screen value is 9.86e-05

The reported value for chain 1 V10D in terms of screen value is 0.000207

The reported value for chain 1 G8Y in terms of screen value is 0

The reported value for chain 1 G8D in terms of screen value is 0.000107

The reported value for chain 1 T9Y in terms of screen value is 2.09e-05

The reported value for chain 1 L5K in terms of screen value is 0

The reported value for chain 1 Q12V in terms of screen value is 0

The reported value for chain 1 T9H in terms of screen value is 1.62e-05

The reported value for chain 1 S15M in terms of screen value is 0.000159

The reported value for chain 1 S6W in terms of screen value is 0

The reported value for chain 1 S14N in terms of screen value is 3.83e-05

The reported value for chain 1 F11I in terms of screen value is 0.000239

The reported value for chain 1 T9D in terms of screen value is 0.00026

The reported value for chain 1 P16V in terms of screen value is 0.000367

The reported value for chain 1 S14I in terms of screen value is 0.0016

The reported value for chain 1 S3V in terms of screen value is 0

The reported value for chain 1 P16N in terms of screen value is 4.17e-05

The reported value for chain 1 S2H in terms of screen value is 0

The reported value for chain 1 S6Y in terms of screen value is 0

The reported value for chain 1 Q12Y in terms of screen value is 1.21e-05

The reported value for chain 1 V10F in terms of screen value is 0

The reported value for chain 1 S13A in terms of screen value is 0

The reported value for chain 1 I7G in terms of screen value is 0

The reported value for chain 1 S13H in terms of screen value is 8.96e-05

The reported value for chain 1 S3E in terms of screen value is 0.000394

The reported value for chain 1 T9L in terms of screen value is 0

The reported value for chain 1 S6A in terms of screen value is 0.000439

The reported value for chain 1 L5R in terms of screen value is 0

The reported value for chain 1 T9G in terms of screen value is 0

The reported value for chain 1 F11E in terms of screen value is 0.000183

The reported value for chain 1 S15I in terms of screen value is 4.92e-05

The reported value for chain 1 S15A in terms of screen value is 2.5e-05

The reported value for chain 1 S13G in terms of screen value is 1.34e-05

The reported value for chain 1 F11P in terms of screen value is 0.0001

The reported value for chain 1 S15K in terms of screen value is 0

The reported value for chain 1 Q12E in terms of screen value is 0.00594

The reported value for chain 1 L5Q in terms of screen value is 0

The reported value for chain 1 P16T in terms of screen value is 2.95e-05

The reported value for chain 1 P16M in terms of screen value is 0

The reported value for chain 1 G8T in terms of screen value is 0

The reported value for chain 1 G4Y in terms of screen value is 0

The reported value for chain 1 S14F in terms of screen value is 0.000194

The reported value for chain 1 S13L in terms of screen value is 1.28e-05

The reported value for chain 1 S6L in terms of screen value is 9.77e-05

The reported value for chain 1 S13E in terms of screen value is 0.000579

The reported value for chain 1 S2P in terms of screen value is 0.00012

The reported value for chain 1 S15G in terms of screen value is 3.5e-05

The reported value for chain 1 P16F in terms of screen value is 0

The reported value for chain 1 V10S in terms of screen value is 5.93e-05

The reported value for chain 1 P16L in terms of screen value is 3.5e-05

The reported value for chain 1 P16Q in terms of screen value is 0

The reported value for chain 1 T9N in terms of screen value is 0.000187
